# study.system: human GABAA α1β3γ2 receptor (Homo sapiens (Human), UniProt P14867+P18507)
# protocol.notes: Radioligand binding assay, competition for [3H]Flumazenil, HEK293F cells
# protocol.conditions: Log[Ki α1β3γ2 (nM)/Ki α2β2γ1 (nM)]
observable: LogSel
// print number alone

Known LogSel results, listed for orientation:
chemical.string: Cc1ccc2c(c1Cl)C(c1cc(O)ccc1F)=NCC(=O)N2C
study.system: human GABAA α1β3γ2 receptor (Homo sapiens (Human), UniProt P14867+P18507)
LogSel: 1.59

chemical.string: Cc1nnc2n1-c1ccc(Cl)c(Cl)c1C(c1cc(O)ccc1F)=NC2
study.system: human GABAA α1β3γ2 receptor (Homo sapiens (Human), UniProt P14867+P18507)
LogSel: 1.37

chemical.string: Cc1nc2n(n1)-c1ccc(C(F)(F)F)c(Cl)c1C(c1nc(O)ccc1Cl)=N[C@H]2C
study.system: human GABAA α1β3γ2 receptor (Homo sapiens (Human), UniProt P14867+P18507)
LogSel: 3.19

Exam item: For `Cc1nnc2n1-c1ccc(Cl)c(Cl)c1C(c1c(F)ccc(O)c1F)=NC2` , write its LogSel.
Marked response: 1.28

Exam item: For `Cc1nnc2n1-c1ccc(C(F)(F)F)c(Cl)c1C(c1nc(O)ccc1Cl)=N[C@H]2C` , write its LogSel.
Marked response: 2.85

---

# study.system: human GABAA α2β2γ1 receptor (Homo sapiens (Human), UniProt P47869+Q8N1C3)
# protocol.notes: Radioligand binding assay, competition for [3H]RO7239181, membranes from HEK293F cells
# protocol.conditions: read-out: Ki h-GABAA α2β2γ1; [3H]RO7239181 20-30 nM, HEK293F membranes, 1 hour at 4° C., mean of two determinations
# Description: The affinity of compounds at GABAA γ1 subunit-containing receptors was measured by competition for [^3H]RO7239181 (67.3 Ci/mmol; Roche) binding to membranes from HEK293F cells (ThermoFisher R79007) expressing human (transiently transfected) receptors of composition α5β2γ1, α2β2γ1, α1β2γ1. […]
Here, each record is paired with measured pKi data.
Scale: negative log10 of molar concentration, which is what pKi denotes.

compound: C[C@@H]1N=C(c2nc(O)ccc2F)c2c(ccc(C(F)(F)F)c2Cl)-n2cc(C(=O)N3CCC3)nc21 [Example 30]
pKi: 7.33

compound: Cc1nnc2n1-c1ccc(Cl)c(Cl)c1C(c1c(F)ccc(O)c1F)=N[C@H]2C [Example 19]
pKi: 8.51

compound: COC1CN(C(=O)c2nc3n(n2)-c2ccc(Cl)c(Cl)c2C(c2cc(O)ccc2F)=NC3)C1 [Example 7]
pKi: 8.65

Now for another entry.
Exam item: Answer with pKi of C[C@@H]1N=C(c2nc(O)ccc2F)c2c(ccc(C(F)(F)F)c2Cl)-n2cc(C(=O)NC3CC3)nc21 [Example 31] measured for human GABAA α2β2γ1 receptor (Homo sapiens (Human), UniProt P47869+Q8N1C3).
Marked response: 7.81

---

# study.system: h-GABA-A α2β2γ1 receptor (Homo sapiens (Human), UniProt P47869+Q8N1C3)
# protocol.notes: Two-electrode voltage clamp electrophysiology in Xenopus oocytes expressing GABAA receptors
# Format: cell-based
# protocol.conditions: Xenopus oocytes, GABA EC20, test compound at approx. 30-fold its Ki α2β2γ1
Here, each record is paired with measured Fold increase h-GABA-A α2β2γ1 oocyte @ 30-fold Ki data.
// print number alone

Known Fold increase h-GABA-A α2β2γ1 oocyte @ 30-fold Ki results, listed for orientation:
molecule: C[C@@H]1N=C(c2nc(O)ccc2F)c2c(ccc(C(F)(F)F)c2Cl)-n2c1nc1c2CCC1 [Example 24]
study.system: h-GABA-A α2β2γ1 receptor (Homo sapiens (Human), UniProt P47869+Q8N1C3)
numeric.value: 1.64

molecule: COC1CN(C(=O)c2nc3n(n2)-c2ccc(Cl)c(Cl)c2C(c2cc(O)ccc2F)=NC3)C1 [Example 7]
study.system: h-GABA-A α2β2γ1 receptor (Homo sapiens (Human), UniProt P47869+Q8N1C3)
numeric.value: 1.65

molecule: Cc1cn2c(n1)[C@H](C)N=C(c1nc(O)ccc1F)c1c-2ccc(C(F)(F)F)c1Cl [Example 28]
study.system: h-GABA-A α2β2γ1 receptor (Homo sapiens (Human), UniProt P47869+Q8N1C3)
numeric.value: 1.68

molecule: O=c1ccn2c(n1)CN=C(c1cc(O)ccc1F)c1c-2ccc(Cl)c1Cl [Example 6]
study.system: h-GABA-A α2β2γ1 receptor (Homo sapiens (Human), UniProt P47869+Q8N1C3)
numeric.value: 1.92

molecule: CN1C(=O)CN=C(c2c(F)ccc(O)c2F)c2c1ccc(Cl)c2Cl [Example 12]
study.system: h-GABA-A α2β2γ1 receptor (Homo sapiens (Human), UniProt P47869+Q8N1C3)
numeric.value: 1.99

molecule: O=c1ccn2c(n1)CN=C(c1c(F)ccc(O)c1F)c1c-2ccc(Cl)c1Cl [Example 14]
study.system: h-GABA-A α2β2γ1 receptor (Homo sapiens (Human), UniProt P47869+Q8N1C3)
numeric.value: 1.68

molecule: CN1C(=O)CN=C(c2cc(O)ccc2F)c2c1ccc(Cl)c2Cl [Example 1]
study.system: h-GABA-A α2β2γ1 receptor (Homo sapiens (Human), UniProt P47869+Q8N1C3)
numeric.value: 1.90

molecule: Oc1ccc(F)c(C2=NCc3nncn3-c3ccc(C(F)(F)F)c(Cl)c32)c1 [Example 10]
study.system: h-GABA-A α2β2γ1 receptor (Homo sapiens (Human), UniProt P47869+Q8N1C3)
numeric.value: 1.73

Exam item: For Cc1nnc2n1-c1ccc(C(F)(F)F)c(Cl)c1C(c1cc(O)ccc1F)=NC2 [Example 9] , write its Fold increase h-GABA-A α2β2γ1 oocyte @ 30-fold Ki.
Marked response: 1.69

Exam item: For COC1CN(C(=O)c2nc3n(n2)-c2ccc(C(F)(F)F)c(Cl)c2C(c2cc(O)ccc2F)=NC3)C1 [Example 16] , write its Fold increase h-GABA-A α2β2γ1 oocyte @ 30-fold Ki.
Marked response: 1.48
